The entries below are paired with their reported pIC50.
study-target: His-CREBBP (1081-1197) bromodomain (Homo sapiens (Human), UniProt Q92793)
Sequence (Q92793 1081-1197): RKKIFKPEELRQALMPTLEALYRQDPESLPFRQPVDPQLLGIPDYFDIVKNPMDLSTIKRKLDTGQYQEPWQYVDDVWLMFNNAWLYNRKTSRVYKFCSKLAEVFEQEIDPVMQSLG
assay-procedure: AlphaScreen in-vitro binding assay for CREBBP
condition-label: biochemical
Reminder that pIC50 is minus the log10 of a molar concentration.

Below: 6 compounds and their reported pIC50.
* Cn1cc(N2C(=O)c3c(c(C(F)(F)F)nn3C3CC3)C2c2ccc(Cl)cc2)cc(Cl)c1=O (stereo not shown) [Example 44] | 5.41
* Cc1cc(N2C(=O)c3c(c(CO)nn3C3CC3)[C@H]2c2ccc(Cl)cc2)cn2c(C)nnc12 [Example 166] | 4.85
* Cc1cc(N2C(=O)c3c(c(C4CC4)nn3C)[C@H]2c2ccc(Cl)cc2)cn2c(C)nnc12 [Example 164] | 5.29
* Cc1n[nH]c2c1[C@@H](c1ccc(Cl)cc1)N(c1cc(C)c3nnc(C)n3c1)C2=O [Example 165] | 5.34
* Cc1nn(C)c2c1C(c1ccc(Cl)cc1)N(c1cc(C)c(=O)n(C)c1)C2=O (stereo not shown) [Example 57] | 5.17
* Cc1ncccc1-n1nc2c(c1C)C(c1ccc(Cl)cc1)N(c1cc(C)c(=O)n(C)c1)C2=O (stereo not shown) [Example 81] | 6.04

Per the records, this compound ( Cc1ncccc1-n1nc(C)c2c1C(=O)N(c1cc(C)c(=O)n(C)c1)C2c1ccc(Cl)cc1 (stereo not shown) [Example 82] ) has pIC50 equal to 5.19

Per the records, this compound ( COc1ncccc1-n1nc(C)c2c1C(=O)N(c1cc(Cl)c(=O)n(C)c1)C2c1ccc(Cl)cc1 (stereo not shown) [Example 72] ) has pIC50 equal to 5.09
